# Measurement target: Retinaldehyde dehydrogenase 3 (Homo sapiens)
# Protocol: qHTS for Inhibitors of the Aldehyde Dehydrogenase Family (ALDH1A3) Confirmatory screens (AID 2061311); further: nearly all actives have a fitted effect of over 60% in size
# Experimental setup: ALDH inhibition qHTS; series mostly up to 46 µM
Results filed as inconclusive are left out. Calls of active or inactive are those of the source. The call rests on the fitted dose curve; in most records, active means well fitted inhibition curve with a large enough effect; inconclusive means small, poorly fitted or top-dose-only effect; inactive means no such curve, though single readings can be large or run the other way.
Your response should consist of one outcome taken from TRUE for active, FALSE for inactive

Query block: Per the records of this test, what outcome belongs to O=S(=O)(Nc1cc(O)cc2cccnc12)c1ccc(Cl)s1 ?
Result block: TRUE

Query block: Per the records of this test, what outcome belongs to Fc1c(-c2ccc3ncnc(NCc4cccs4)c3c2)ccc2c1OCO2 ?
Result block: FALSE

Query block: Per the records of this test, what outcome belongs to O=[S+]([O-])(NCc1nccs1)c1ccc(Nc2nc(-c3ccccc3)cs2)cc1 ?
Result block: FALSE

Query block: Per the records of this test, what outcome belongs to CC(C(=O)O)c1ccc2c(c1)[nH]c1ccc(Cl)cc12 (stereo not drawn) ?
Result block: TRUE

Query block: Per the records of this test, what outcome belongs to COc1ccc(S(=O)(=O)N2CCN(C(=O)c3ccc([N+](=O)[O-])o3)CC2)cc1 ?
Result block: FALSE

Query block: Per the records of this test, what outcome belongs to O=C(O)c1cn(C2CC2)c2cc(N3C[C@@H]4C[C@H]3CN4)c(F)cc2c1=O ?
Result block: FALSE

Query block: Per the records of this test, what outcome belongs to Cc1cc2c(s1)c1cnn(Cc3c(Cl)ccc(C)c3F)c(=O)c1n2C ?
Result block: FALSE

Query block: Per the records of this test, what outcome belongs to Cc1nnc(-c2sc(NC(=O)[C@H](C(C)C)n3c(=O)[nH]c4ccccc4c3=O)nc2C)o1 ?
Result block: FALSE

Query block: Per the records of this test, what outcome belongs to Cc1c(Cl)cccc1NS(=O)(=O)c1cc2c(cc1F)NC(=O)CC2 ?
Result block: FALSE

Query block: Per the records of this test, what outcome belongs to COc1cc(O)c(C(CC(=O)N2CCCC(C(C)C)C2)c2ccc3c(c2)OCO3)c(OC)c1 (stereo not drawn) ?
Result block: FALSE

Query block: Per the records of this test, what outcome belongs to CCN(CC)CCNC(=O)c1ccc(N)cc1 ?
Result block: FALSE

Query block: Per the records of this test, what outcome belongs to CCOC(=O)c1ccc(O)c2ncc(N3CCC(C(=N)N)CC3)cc12 ?
Result block: TRUE

Query block: Per the records of this test, what outcome belongs to COc1ccc(NC(=O)c2ccc(-c3ccc(C(N)=O)cc3C)cc2)cc1N1CCN(C)CC1 ?
Result block: FALSE

Query block: Per the records of this test, what outcome belongs to COc1ccc(CN2C(=O)c3ccccc3NC2c2ccc(OC)c(COc3ccc(NC(C)=O)cc3)c2)cc1 (stereo not drawn) ?
Result block: TRUE

Query block: Per the records of this test, what outcome belongs to Cc1[nH]c(=O)c(C#N)cc1-c1ccncc1 ?
Result block: FALSE

Query block: Per the records of this test, what outcome belongs to O=C(O)CN(CCOCCOCCN(CC(=O)O)CC(=O)O)CC(=O)O ?
Result block: FALSE

Query block: Per the records of this test, what outcome belongs to O=C(NCc1ccc(F)c(F)c1)c1ccc2nnc(-c3cccc(C(F)(F)F)c3)n2c1 ?
Result block: FALSE

Query block: Per the records of this test, what outcome belongs to Cc1cc(C)nc(NC(=S)N2CCN(c3cncc4ccccc34)CC2)c1 ?
Result block: TRUE

Query block: Per the records of this test, what outcome belongs to CCOc1ccccc1-c1nnc2n1N=C(c1cccc(OC)c1)CS2 ?
Result block: FALSE

Query block: Per the records of this test, what outcome belongs to CCOC(=O)c1cccc(-n2cnc(/C=C3\NC(=O)N(CC(=O)O)C3=O)c2)c1 ?
Result block: FALSE

Query block: Per the records of this test, what outcome belongs to O=C1CCc2cc(S(=O)(=O)Nc3cc(F)cc(Cl)c3)c(F)cc2N1 ?
Result block: FALSE

Query block: Per the records of this test, what outcome belongs to CC(C)(C)OC(=O)N1CCN(c2ccc(NCc3ccc(-c4ccc(C#N)cc4)o3)cc2)CC1 ?
Result block: TRUE

Query block: Per the records of this test, what outcome belongs to CC(=O)NC(C)c1cnc(-c2cnc(Oc3ccc(OC(C)C)cc3)s2)s1 (stereo not drawn) ?
Result block: FALSE

Query block: Per the records of this test, what outcome belongs to Cc1nc2ccccn2c1P(=O)(c1ccccc1)c1ccccc1 ?
Result block: FALSE

Query block: Per the records of this test, what outcome belongs to CC(C)(C)c1ccc(C[C@H](C(=O)O)N2C(=O)c3ccc(C(=O)O)cc3C2=O)cc1 ?
Result block: FALSE

Query block: Per the records of this test, what outcome belongs to CN1CCN(C(=O)CN[C@@H]2C[C@H]2c2ccc(OCc3ccccc3)cc2)CC1 ?
Result block: TRUE

Query block: Per the records of this test, what outcome belongs to COC(=O)[C@]1(Cc2ccc(O)c(CC=C(C)C)c2)OC(=O)C(O)=C1c1ccc(O)cc1 ?
Result block: TRUE

Query block: Per the records of this test, what outcome belongs to COc1ccc(N2CCN(c3nc(C(=O)NCc4cccc(C)c4)cs3)CC2)cc1 ?
Result block: FALSE

Query block: Per the records of this test, what outcome belongs to Cc1nnc(-c2cnn(C)c2N)n1CCCn1ccnc1 ?
Result block: FALSE

Query block: Per the records of this test, what outcome belongs to Cn1nnnc1Sc1ncnc2scc(Br)c12 ?
Result block: FALSE

Query block: Per the records of this test, what outcome belongs to Fc1cc(Nc2nc(-c3ccncc3)nc3ccccc23)ccc1N1CCCCC1 ?
Result block: TRUE

Query block: Per the records of this test, what outcome belongs to CCOC(=O)C1=C(N)Oc2ccc(Br)cc2C1C(C#N)C(=O)OCC (stereo not drawn) ?
Result block: TRUE

Query block: Per the records of this test, what outcome belongs to CC[n+]1c(/C=C/C=C2/N(C)c3ccccc3C2(C)C)sc2ccccc21 ?
Result block: TRUE
